# procedure details: in vivo pharmacokinetic study in rats
# Design: species or system Sprague-Dawley (SD) rats
# experimental setup: male, Sprague-Dawley, rat, plasma, oral, 40 mg/kg, oral 40 mg/kg relative to intravenous administration, read-out: F (absolute oral bioavailability)
# Description: Male Sprague-Dawley (SD) rats (200 ± 20 g) were supplied by SPF Biotechnology Co., Ltd. (Beijing, China) and housed under standard laboratory conditions throughout the study. […] Cur was extracted from 50 μL of plasma using 600 μL of ethyl acetate and quantified by LC-MS/MS, with diclofenac sodium (20 μL, 200 ng/mL) serving as the internal standard. […] Pharmacokinetic parameters were calculated using non-compartmental analysis with DAS 2.0 software (Boying Corporation, Beijing, China). […]
property name: bioavailability

Requested read-out: bioavailability. Entry: `COc1cc(/C=C/C(=O)CC(=O)/C=C/c2ccc(O)c(OC)c2)ccc1O` ~1%

###

# procedure details: equilibrium solubility of crystalline Cur in excipient solutions
# Assay type: physicochemical
# experimental setup: thermodynamic from solid, pure water, pH 7.0, 37 °C, filtered 0.22 μm, read-out: equilibrium solubility (Cur con.)
property name: solubility thermodynamic at 24 h

Requested read-out: solubility thermodynamic at 24 h. Entry: `COc1cc(/C=C/C(=O)CC(=O)/C=C/c2ccc(O)c(OC)c2)ccc1O` < 0.1 µg/mL

###

# procedure details: in vivo pharmacokinetic study in rats
# Design: species or system Sprague-Dawley (SD) rats
# experimental setup: male, Sprague-Dawley, plasma, iv; rat, 40 mg/kg Cur-equivalent
property name: Cmax
# include the unit after the value

Requested read-out: Cmax. Entry: `COc1cc(/C=C/C(=O)CC(=O)/C=C/c2ccc(O)c(OC)c2)ccc1O` 334 ng/mL

###

# procedure details: in vivo pharmacokinetic study in rats
# Design: species or system Sprague-Dawley (SD) rats
# experimental setup: male, Sprague-Dawley, rat, plasma, iv, 40 mg/kg, i.v., 40 mg/kg, 0.12 h, Rat1-Rat5, read-out: plasma concentration of Cur, individual animals
property name: concentration at 0.12 h
# include the unit after the value

Requested read-out: concentration at 0.12 h. Entry: COc1cc(/C=C/C(=O)CC(=O)/C=C/c2ccc(O)c(OC)c2)ccc1O [Solution Cur, Curcumin] 261 ng/mL

###

# procedure details: cytotoxicity assay (CCK-8 cell viability)
# Assay type: cell-based, canine
# experimental setup: dog, MDCK cells, pH 7.4, MDCK cells, 4 h treatment, read-out: IC50 (cytotoxicity, Cur-equivalent)
property name: IC50 at 4 h (µg/mL)
Output spec: scalar in µg/mL, unitless text.

Requested read-out: IC50 at 4 h. Entry: COc1cc(/C=C/C(=O)CC(=O)/C=C/c2ccc(O)c(OC)c2)ccc1O [Crystalline Cur, Curcumin] 82.2

###

# procedure details: in vivo pharmacokinetic study in rats
# Set-up: species or system Sprague-Dawley (SD) rats
# experimental setup: male, Sprague-Dawley, plasma, iv; rat, 40 mg/kg Cur-equivalent
property name: half-life
# include the unit after the value

Requested read-out: half-life. Entry: `COc1cc(/C=C/C(=O)CC(=O)/C=C/c2ccc(O)c(OC)c2)ccc1O` 1.8 h

###

# procedure details: equilibrium solubility of crystalline Cur in excipient solutions
# Assay type: physicochemical
# experimental setup: aqueous P188/TW80 solution (8 mg/mL + 1 mg/mL), pH 7, aqueous with cosolvent or surfactant or cyclodextrin, thermodynamic from solid, P188/TW80 8 mg/mL + 1 mg/mL in water, 37 °C, read-out: equilibrium solubility (Cur con.)
property name: solubility thermodynamic at 24 h (µg/mL)
Output spec: scalar in µg/mL, unitless text.

Requested read-out: solubility thermodynamic at 24 h. Entry: `COc1cc(/C=C/C(=O)CC(=O)/C=C/c2ccc(O)c(OC)c2)ccc1O` 10.3

Provenance of the data: paper PMC12736958
